- System Under Test: 3-oxoacyl-[acyl-carrier-protein] synthase 2 (Mycobacterium tuberculosis, UniProt P9WQD7)
- Sequence (P9WQD7 whole entry): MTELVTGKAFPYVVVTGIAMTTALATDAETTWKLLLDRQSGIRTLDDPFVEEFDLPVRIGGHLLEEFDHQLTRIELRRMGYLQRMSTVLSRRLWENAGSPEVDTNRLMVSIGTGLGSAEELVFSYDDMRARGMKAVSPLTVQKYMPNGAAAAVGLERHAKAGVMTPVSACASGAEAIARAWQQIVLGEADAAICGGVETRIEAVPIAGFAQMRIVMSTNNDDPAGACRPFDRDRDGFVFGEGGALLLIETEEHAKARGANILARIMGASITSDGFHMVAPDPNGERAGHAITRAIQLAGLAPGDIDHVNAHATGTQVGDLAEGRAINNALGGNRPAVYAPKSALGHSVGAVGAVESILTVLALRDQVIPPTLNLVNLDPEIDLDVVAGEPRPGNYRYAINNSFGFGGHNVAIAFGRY
Property Name: IC50

Molecule | Property Name | Measured
CCCCCCCCCC1(C)SC(O)=C(C)C1=O (stereo not drawn) | IC50 | > 1000 µM
CC1=C(O)C(C)(Cc2c(C)cc(C)cc2C)SC1=O (stereo not drawn) | IC50 | > 1000 µM
COc1ccc(CC2(C)SC(O)=C(C)C2=O)cc1 (stereo not drawn) | IC50 | > 1000 µM
